- TARGET ENTITY: IP6K1 (Homo sapiens (Human), UniProt Q92551)
- Sequence (Q92551 whole entry): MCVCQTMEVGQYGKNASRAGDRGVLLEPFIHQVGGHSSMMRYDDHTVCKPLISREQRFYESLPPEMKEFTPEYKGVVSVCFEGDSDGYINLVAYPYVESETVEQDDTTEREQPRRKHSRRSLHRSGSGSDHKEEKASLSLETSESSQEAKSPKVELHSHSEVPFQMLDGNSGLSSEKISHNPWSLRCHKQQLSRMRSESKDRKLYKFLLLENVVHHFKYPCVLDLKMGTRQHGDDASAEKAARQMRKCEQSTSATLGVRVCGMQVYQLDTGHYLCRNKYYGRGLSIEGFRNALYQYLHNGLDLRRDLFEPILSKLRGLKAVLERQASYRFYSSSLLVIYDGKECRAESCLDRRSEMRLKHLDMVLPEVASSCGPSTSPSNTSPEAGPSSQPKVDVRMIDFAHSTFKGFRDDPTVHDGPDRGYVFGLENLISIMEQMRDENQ
- PROCEDURE TEXT: Enzyme-coupled assay of IP6K1 activity (Dipp1-coupled, malachite green Pi release)
- Assay type: biochemical
- CONDITION SET: enzyme-coupled assay; Table 2
pIC50: −log10 of the molar value.
Examples of compounds with documented pIC50 follow.

COMPOUND | pIC50
O=C(O)c1ccc2noc(-c3ccc(OC(F)(F)F)cc3)c2c1 | 4.00 to 6.00
O=C(O)c1ccc2noc(-c3ccc(NC(=O)c4ccc(Cl)cc4)cc3)c2c1 | 6.00 to 7.00
O=C(O)c1ccc2noc(-c3cccc(NC(=O)C4CCCC4)c3)c2c1 | 6.00 to 7.00
O=C(O)c1ccc2noc(-c3cccc(-c4cccc(Cl)c4)c3)c2c1 | 6.00 to 7.00
O=C(O)c1ccc2noc(-c3ccc(NC(=O)C4CCNCC4)cc3)c2c1 | 4.00 to 6.00

====

- TARGET ENTITY: IP6K3 (Homo sapiens (Human))
- Sequence (Q96PC2 whole entry): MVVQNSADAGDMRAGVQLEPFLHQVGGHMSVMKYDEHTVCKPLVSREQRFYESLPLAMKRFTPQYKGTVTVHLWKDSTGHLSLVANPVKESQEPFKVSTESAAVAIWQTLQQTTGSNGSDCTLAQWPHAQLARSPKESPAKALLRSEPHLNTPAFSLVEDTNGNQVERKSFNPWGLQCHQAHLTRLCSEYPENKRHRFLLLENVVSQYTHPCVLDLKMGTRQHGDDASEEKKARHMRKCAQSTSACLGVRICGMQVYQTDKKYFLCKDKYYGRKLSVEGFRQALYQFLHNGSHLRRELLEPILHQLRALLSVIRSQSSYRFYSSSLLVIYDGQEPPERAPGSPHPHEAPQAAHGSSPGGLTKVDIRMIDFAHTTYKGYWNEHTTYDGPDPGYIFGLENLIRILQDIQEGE
- PROCEDURE TEXT: Enzyme-coupled assay of IP6K3 activity (Dipp1-coupled, malachite green Pi release)
- Format: biochemical
- CONDITION SET: determined from enzyme-coupled assays
TEST READOUT: IC50

COMPOUND | TEST READOUT | RESULT
O=C(Nc1ccc(-c2onc3ccc(-c4noc(=O)[nH]4)cc23)cc1)C1CC1 | IC50 | 10 to 100 nM
O=c1[nH]c(-c2ccc3noc(-c4ccc(-c5ccccc5)cc4)c3c2)no1 | IC50 | < 10 nM
O=c1[nH]c(-c2ccc3noc(-c4ccccc4)c3c2)no1 | IC50 | 100 to 1000 nM

====

- TARGET ENTITY: IP6K2 (Homo sapiens (Human))
- Sequence (Q9UHH9 whole entry): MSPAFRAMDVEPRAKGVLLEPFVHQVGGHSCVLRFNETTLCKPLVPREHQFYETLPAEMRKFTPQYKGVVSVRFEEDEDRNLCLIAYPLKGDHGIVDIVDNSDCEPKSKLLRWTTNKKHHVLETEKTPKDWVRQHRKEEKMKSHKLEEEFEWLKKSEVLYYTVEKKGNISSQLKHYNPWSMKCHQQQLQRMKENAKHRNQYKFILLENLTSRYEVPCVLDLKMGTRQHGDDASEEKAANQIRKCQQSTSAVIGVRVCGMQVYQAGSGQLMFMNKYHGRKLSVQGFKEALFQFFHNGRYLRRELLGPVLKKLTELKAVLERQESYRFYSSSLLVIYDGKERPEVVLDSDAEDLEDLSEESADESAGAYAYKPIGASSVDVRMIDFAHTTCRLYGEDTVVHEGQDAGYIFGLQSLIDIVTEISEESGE
- PROCEDURE TEXT: Enzyme-coupled assay of IP6K2 activity (Dipp1-coupled, malachite green Pi release)
- Assay type: biochemical
- CONDITION SET: enzyme-coupled assay; Table 4
pIC50: −log10 of the molar value.

COMPOUND | pIC50
Clc1cnc(Oc2cccc(-c3onc4ccc(-c5nnn[nH]5)cc34)c2)c(Cl)c1 [Compound 80] | 7.00 to 8.00
O=C(Nc1cccc(-c2onc3ccc(-c4nnn[nH]4)cc23)c1)C1CC1 [Compound 74] | 7.00 to 8.00
Clc1ccc(-c2onc3ccc(-c4nnn[nH]4)cc23)cc1Cl [Compound 67] | 6.00 to 7.00
c1ccc(-c2onc3ccc(-c4nnn[nH]4)cc23)cc1 [Compound 59] | 7.00 to 8.00
Fc1ccc(-c2onc3ccc(-c4nnn[nH]4)cc23)cc1 [Compound 63] | 7.00 to 8.00
FC(F)(F)Oc1ccc(-c2onc3ccc(-c4nnn[nH]4)cc23)cc1 [Compound 66] | 7.00 to 8.00
O=C(Nc1ccc(-c2onc3ccc(-c4nnn[nH]4)cc23)cc1)C1CC1 [Compound 71] | 6.00 to 7.00
c1cncc(-c2ccc(-c3onc4ccc(-c5nnn[nH]5)cc34)cc2)c1 [Compound 69] | 7.00 to 8.00
O=C(C1CC1)N1CCC(Oc2cccc(-c3onc4ccc(-c5nnn[nH]5)cc34)c2)CC1 [Compound 89] | 7.00 to 8.00
O=C(Nc1ccc(-c2onc3ccc(-c4nnn[nH]4)cc23)cc1)C1CCCC1 [Compound 72] | 7.00 to 8.00
c1cc(OC2CNC2)cc(-c2onc3ccc(-c4nnn[nH]4)cc23)c1 [Compound 92] | 7.00 to 8.00
c1ccc(-c2ccc(-c3onc4ccc(-c5nnn[nH]5)cc34)cc2)cc1 [Compound 68] | 7.00 to 8.00
c1cc(OCCN2CCOCC2)cc(-c2onc3ccc(-c4nnn[nH]4)cc23)c1 [Compound 83] | 6.00 to 7.00
COc1ccccc1-c1onc2ccc(-c3nnn[nH]3)cc12 [Compound 77] | 7.00 to 8.00
CC(C)(C)OC(=O)Nc1cccc(-c2cccc(-c3onc4ccc(-c5nnn[nH]5)cc34)c2)c1 [Compound 96] | 7.00 to 8.00
